Reported DC50 values follow for various compounds
- Assayed System: BCL6 (Homo sapiens)
- Construct: endogenous in cells; host or cells: T47D breast cancer epithelial cells
- Test: Immunofluorescence protocol for high content imaging of BCL6 (degradation) in T47D cells, 3 days compound treatment
- Format: cell-based
- Assay Context: read-out: Mean DC50 (nM)* category

Compound: CNC(=O)COc1cc2cc(Nc3nc(N4CCC(O[C@H]5C[C@H](N6CC7(CCN7c7cccc8c7CN(C7CCC(=O)NC7=O)C8=O)C6)C5)CC4)ncc3Cl)ccc2n(C(C)C)c1=O (stereo partly shown)
DC50: < 10 nM
//
Compound: CNC(=O)COc1cc2cc(Nc3nc(N4CCC(CN5CCC6(CC5)CN(c5ccc7c(c5C(C)C)CN(C5CCC(=O)NC5=O)C7=O)C6)CC4)ncc3Cl)ccc2n(C(C)C)c1=O (stereo not shown)
DC50: < 10 nM
//
Compound: CNC(=O)COc1cc2cc(Nc3nc(N4CCC(O[C@H]5C[C@H](N6CCC7(CN(c8ccc9c(c8)C(=O)N(C8CCC(=O)NC8=O)C9)C7)C6)C5)CC4)ncc3Cl)ccc2n(C(C)C)c1=O (stereo partly shown)
DC50: < 10 nM
//
Compound: CNC(=O)COc1cc2cc(Nc3nc(N4CCC(O[C@H]5C[C@H](N6CCC(c7ccc8c(c7F)CN([C@@H]7CCC(=O)NC7=O)C8=O)CC6)C5)CC4)ncc3Cl)ccc2n(C(C)C)c1=O
DC50: < 10 nM
//
Compound: CNC(=O)COc1cc2cc(Nc3nc(N4CCC(O[C@H]5C[C@H](N6C[C@@H](C)N(c7ccc8c(c7)C(=O)N(C7CCC(=O)NC7=O)C8=O)[C@H](C)C6)C5)CC4)ncc3Cl)ccc2n(C(C)C)c1=O (stereo partly shown)
DC50: 10 to 50 nM
//
Compound: CNC(=O)COc1cc2cc(Nc3nc(N4CCC(OC5CCC6(CC5)CN(c5cc(F)cc7c5CN(C5CCC(=O)NC5=O)C7=O)C6)CC4)ncc3Cl)ccc2n(C(C)C)c1=O (stereo not shown)
DC50: < 10 nM
//
Compound: CC[C@@H]1CN([C@H]2C[C@H](OC3CCN(c4ncc(Cl)c(Nc5ccc6c(c5)cc(OCC(=O)NC)c(=O)n6C(C)C)n4)CC3)C2)CCN1c1ccc2c(c1C)C(=O)N(C1CCC(=O)NC1=O)C2=O (stereo partly shown)
DC50: < 10 nM
//
Compound: CNC(=O)COc1cc2cc(Nc3nc(N4CCC(O[C@H]5C[C@H](N6CC=C(c7ccc8c(c7Cl)CN(C7CCC(=O)NC7=O)C8=O)CC6)C5)CC4)ncc3Cl)ccc2n(C(C)C)c1=O (stereo partly shown)
DC50: < 10 nM
//
Compound: CNC(=O)COc1cc2cc(Nc3nc(N4CCC(O[C@H]5C[C@H](N6CC7(CCN(c8ccc9c(c8)CN(C8CCC(=O)NC8=O)C9=O)CC7)C6)C5)CC4)ncc3Cl)ccc2n(C(C)C)c1=O (stereo partly shown)
DC50: < 10 nM
//
Compound: CNC(=O)COc1cc2cc(Nc3nc(N4CCC(CN5CCC6(CN(c7ccc8c(c7OC)CN(C7CCC(=O)NC7=O)C8=O)C6)C(F)(F)C5)CC4)ncc3Cl)ccc2n(C(C)C)c1=O (stereo not shown)
DC50: 10 to 50 nM
